- Tested system: human ρ1 GABAC WT receptors (Homo sapiens, UniProt P24046)
- Construct: expressed in transfected cells; host or cells: Xenopus laevis oocytes injected with cRNA
- Sequence (P24046 22-479): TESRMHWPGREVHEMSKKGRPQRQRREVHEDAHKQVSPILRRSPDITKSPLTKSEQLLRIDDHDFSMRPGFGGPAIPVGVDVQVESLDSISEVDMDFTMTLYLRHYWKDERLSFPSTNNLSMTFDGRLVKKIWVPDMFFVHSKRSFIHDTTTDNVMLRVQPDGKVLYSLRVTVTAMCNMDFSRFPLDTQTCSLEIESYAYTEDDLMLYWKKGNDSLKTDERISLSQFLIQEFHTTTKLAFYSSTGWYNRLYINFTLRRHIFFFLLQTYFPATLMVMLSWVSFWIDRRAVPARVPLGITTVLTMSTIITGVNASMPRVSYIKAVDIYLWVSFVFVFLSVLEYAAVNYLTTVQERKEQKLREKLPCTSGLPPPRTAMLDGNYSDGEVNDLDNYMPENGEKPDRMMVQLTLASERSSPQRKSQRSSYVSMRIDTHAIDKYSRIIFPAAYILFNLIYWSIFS
- Measurement notes: Two-electrode voltage-clamp electrophysiology, Xenopus oocytes expressing ρ1 GABAC WT receptors
- Format: cell-based
- Condition: agonist applied alone, ρ1 WT
Reported property: EC50 (µM)
Dear colleague, please return just the value in µM, with no unit written.

Inquiry: Return reported EC50; argument: NC/C=C\C(=O)O [CACA]
Reply text: 95

---

- Tested system: ρ1 GABAC T244S mutant receptors (Homo sapiens, UniProt P24046, T265S)
- Sequence (P24046 22-479 T265S): as the sequence (P24046 22-479) above, with T244S counted along it
- Measurement notes: Two-electrode voltage-clamp electrophysiology, Xenopus oocytes expressing ρ1 T244S mutant receptors
- Condition: agonist applied alone, ρ1 T244S
Reported property: pEC50
By convention, pEC50 is the negative base-10 log of a molar concentration.

Inquiry: If you can, please state the reported pEC50 value of NC/C=C/C(=O)O [TACA, trans-aminocrotonic acid] .
Reply text: 4.85

---

- Tested system: ρ1 GABAC T244A mutant receptors (Homo sapiens, UniProt P24046, T265A)
- Construct: expressed in transfected cells; host or cells: Xenopus laevis oocytes injected with cRNA (raised to 300 ng/μl)
- Sequence (P24046 22-479 T265A): as the sequence (P24046 22-479) above, with T244A counted along it
- Measurement notes: Two-electrode voltage-clamp electrophysiology, Xenopus oocytes expressing ρ1 T244A mutant receptors
- Assay type: cell-based
- Condition: 300 ng/μl mutant RNA injected
Reported property: EC50 (µM)
Note: unit µM is implicit; provide only the numeric part.

Inquiry: Which EC50 value is on record for NCCC(=O)O ?
Reply text: 1500

---

What pIC50 was measured for each of the following?
- Tested system: ρ1 GABAC T244S mutant receptors (Homo sapiens, UniProt P24046, T265S)
- Measurement notes: Two-electrode voltage-clamp electrophysiology, Xenopus oocytes expressing ρ1 T244S mutant receptors
// field semantics: pIC50 = negative decimal log of concentration (mol/L)

Inquiry: Reported pIC50, compound NCCCCC(=O)O : ____
Reply text: 4.77

Inquiry: Entry under review: NCCC(=O)O . Reported pIC50?
Reply text: 3.00

Inquiry: I am curious: what pIC50 value has been reported for O=C(O)C1=CCNCC1 ?
Reply text: 4.60

---

- Tested system: human ρ1 GABAC WT receptors (Homo sapiens, UniProt P24046)
- Construct: expressed in transfected cells; host or cells: Xenopus laevis oocytes injected with cRNA
- Measurement notes: Two-electrode voltage-clamp electrophysiology, Xenopus oocytes expressing ρ1 GABAC WT receptors
- Assay type: cell-based
- Condition: ρ1 WT
Reported property: pIC50
Conceptually, pIC50 converts a concentration in mol/L into minus its log10.

Inquiry: # pIC50 lookup, item CP(=O)(O)C1=CCNCC1
Reply text: 5.64
